target: BRM (Homo sapiens, UniProt P51531); construct: In-Cell Western Screen of BRM Degradation in SW1573 Cells; endogenous in cells; host or cells: SW1573; assay: In-cell Western screen of BRM degradation in SW1573 cells (Dmax and DC50); assay type: cell-based; details: BRM degradation, SW1573 cells; Table 2D; read-out: *DC50
Sequence (P51531 whole entry): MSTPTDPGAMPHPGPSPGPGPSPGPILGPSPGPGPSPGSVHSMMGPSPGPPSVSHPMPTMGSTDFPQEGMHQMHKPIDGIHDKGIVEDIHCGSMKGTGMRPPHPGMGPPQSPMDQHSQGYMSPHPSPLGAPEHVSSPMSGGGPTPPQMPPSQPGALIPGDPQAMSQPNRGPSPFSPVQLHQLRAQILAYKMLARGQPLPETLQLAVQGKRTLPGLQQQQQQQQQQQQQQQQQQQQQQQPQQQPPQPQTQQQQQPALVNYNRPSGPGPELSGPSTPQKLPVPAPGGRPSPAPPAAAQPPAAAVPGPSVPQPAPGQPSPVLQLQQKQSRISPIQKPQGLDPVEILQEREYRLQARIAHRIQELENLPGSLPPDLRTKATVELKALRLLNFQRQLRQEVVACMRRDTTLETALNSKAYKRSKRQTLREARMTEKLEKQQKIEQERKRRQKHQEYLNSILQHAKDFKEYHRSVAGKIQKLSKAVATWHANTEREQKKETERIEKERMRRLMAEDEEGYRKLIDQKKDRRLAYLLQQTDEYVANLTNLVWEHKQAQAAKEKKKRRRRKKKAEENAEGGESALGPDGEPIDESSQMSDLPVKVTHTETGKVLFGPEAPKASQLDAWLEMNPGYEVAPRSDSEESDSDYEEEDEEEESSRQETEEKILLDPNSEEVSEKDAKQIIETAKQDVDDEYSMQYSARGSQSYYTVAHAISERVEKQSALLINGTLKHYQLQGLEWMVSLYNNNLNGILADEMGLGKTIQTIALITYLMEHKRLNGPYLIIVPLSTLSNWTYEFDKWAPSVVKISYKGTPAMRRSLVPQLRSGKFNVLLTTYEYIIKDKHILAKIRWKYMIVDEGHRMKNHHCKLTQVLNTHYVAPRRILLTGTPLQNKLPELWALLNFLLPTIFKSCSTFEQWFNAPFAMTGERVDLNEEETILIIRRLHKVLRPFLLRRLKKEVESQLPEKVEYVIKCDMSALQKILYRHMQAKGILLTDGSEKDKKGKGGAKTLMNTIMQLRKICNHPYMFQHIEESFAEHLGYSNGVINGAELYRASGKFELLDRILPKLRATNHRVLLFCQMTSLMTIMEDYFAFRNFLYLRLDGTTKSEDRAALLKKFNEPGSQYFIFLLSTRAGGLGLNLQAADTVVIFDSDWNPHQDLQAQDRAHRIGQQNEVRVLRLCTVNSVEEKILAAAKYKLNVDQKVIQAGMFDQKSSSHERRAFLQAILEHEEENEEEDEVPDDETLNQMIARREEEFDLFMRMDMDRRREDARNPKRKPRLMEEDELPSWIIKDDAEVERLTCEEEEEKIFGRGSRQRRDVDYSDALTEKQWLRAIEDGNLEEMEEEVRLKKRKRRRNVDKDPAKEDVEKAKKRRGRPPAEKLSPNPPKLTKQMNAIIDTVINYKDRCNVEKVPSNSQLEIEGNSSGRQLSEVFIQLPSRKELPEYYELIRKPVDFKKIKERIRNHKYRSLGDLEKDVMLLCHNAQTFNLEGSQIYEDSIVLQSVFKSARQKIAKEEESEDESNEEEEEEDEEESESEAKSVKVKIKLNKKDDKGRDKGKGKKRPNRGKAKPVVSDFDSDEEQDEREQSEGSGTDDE
MEASURED_METRIC: DC50

{"columns": ["COMPOUND", "MEASUREMENT_TARGET", "MEASURED_METRIC", "ENDPOINT_RESULT"],
 "data": [
  ["Cc1ncsc1-c1ccc([C@H](C)NC(=O)[C@@H]2C[C@@H](O)CN2C(=O)[C@H](c2cc(N3CCC(CN4CCC(O[C@H]5C[C@H](N6CCOC7(CCN(c8cc(-c9ccccc9O)nnc8N)CC7)C6)C5)CC4)CC3)no2)C(C)C)cc1 [compound 617]", "BRM (Homo sapiens, UniProt P51531)", "DC50", "> 30 nM"],
  ["Cc1ncsc1-c1ccc([C@H](C)NC(=O)[C@@H]2C[C@@H](O)CN2C(=O)[C@@H](c2cc(OCCN3CC[C@H](OCCc4cc(N5C6CCC5CN(c5cc(-c7ccccc7O)nnc5N)C6)ccn4)C[C@@H]3C)no2)C(C)C)cc1 (racemic) [compound 568]", "BRM (Homo sapiens, UniProt P51531)", "DC50", "< 2.5 nM"]
]}

Q: Entry COc1nc(-c2scnc2C)c(F)cc1[C@H](C)NC(=O)[C@@H]1C[C@@H](O)CN1C(=O)[C@H](c1cc(OCCN2CCC(O[C@H]3C[C@H](Oc4cc(N5C6CCC5CN(c5cc(-c7ccccc7O)nnc5N)C6)ccn4)C3)CC2)no1)C(C)C [compound 561] : reported DC50 = ?
A: > 30 nM

Q: Report DC50 for Cc1ncsc1-c1ccc([C@H](C)NC(=O)[C@@H]2C[C@@H](O)CN2C(=O)[C@H](c2cc(OCCC3CCN(C[C@H]4C[C@H](Oc5cc(N6C7CCC6CN(c6cc(-c8ccccc8O)nnc6N)C7)ccn5)C4)CC3)no2)C(C)C)c(F)c1F [compound 587] please.
A: > 30 nM

###

Biological target: BRM (Homo sapiens)
Construct: In-Cell Western Screen of BRM Degradation in SW1573 Cells; endogenous in cells; host or cells: SW1573
Test: In-cell Western screen of BRM degradation in SW1573 cells (Dmax and DC50)
Type: cell-based
Details: BRM degradation, SW1573 cells; read-out: DC50
Procedure: In-Cell Western Screen of BRM Degradation in SW1573 Cells […] To read each plate TBS-T was removed, and each plate was inverted tapped on a paper towel. The plates were read on the LI-COR Odyssey with default intensity settings of 5.0 for both channels. LI-COR images were analyzed with the in-cell Western feature of Image Studio Lite.
MEASURED_METRIC: DC50

Please review the entries below; each comes with its answer.
{"columns": ["COMPOUND", "MEASUREMENT_TARGET", "ENDPOINT_RESULT"],
 "data": [
  ["Cc1ncsc1-c1ccc(CNC(=O)[C@@H]2C[C@@H](O)CN2C(=O)[C@@H](NC(=O)COCCOCCOCCOc2cncc(N3C4CCC3CN(c3cc(-c5ccccc5O)nnc3N)C4)n2)C(C)(C)C)cc1", "BRM (Homo sapiens)", "> 30 nM"],
  ["Cc1ncsc1-c1ccc([C@H](CC#N)NC(=O)[C@@H]2C[C@@H](O)CN2C(=O)[C@@H](c2cc(N3CCC(CN4CCC(O[C@H]5C[C@H](Oc6cc(N7C8CCC7CN(c7cc(-c9ccccc9O)nnc7N)C8)ccn6)C5)CC4)CC3)no2)C(C)C)cc1", "BRM (Homo sapiens)", "< 2.5 nM"],
  ["CC(C)C(C(=O)N1C[C@H](O)C[C@H]1C(=O)N[C@@H](C)c1ccc(-c2scnc2CN(C)C)cc1)c1cc(OCCN2CCN(CCOc3cc(N4C5CCC4CN(c4cc(-c6ccccc6O)nnc4N)C5)ccn3)CC2)no1 (some centres unmarked)", "BRM (Homo sapiens)", "10 to 30 nM"]
]}

Please look at the following compound next.
Q: Please report the recorded DC50 for `Cc1cnnn1-c1ccc([C@H](C)NC(=O)[C@@H]2C[C@@H](O)CN2C(=O)[C@@H](c2cc(OCCN3CCN(CCOc4cc(N5C6CCC5CN(c5cc(-c7ccccc7O)nnc5N)C6)ccn4)CC3)no2)C(C)C)cc1` .
A: 10 to 30 nM

###

target: BRM (Homo sapiens, UniProt P51531); construct: In-Cell Western Screen of BRM Degradation in SW1573 Cells; endogenous in cells; host or cells: SW1573; assay: In-cell Western screen of BRM degradation in SW1573 cells (Dmax and DC50); format: cell-based; conditions: BRM degradation, SW1573 cells; read-out: DC50
MEASURED_METRIC: DC50

// known answers, use as guide
{"columns": ["SMILES_ENTRY", "DC50"],
 "data": [
  ["Cc1ncsc1-c1ccc([C@H](C)NC(=O)[C@@H]2C[C@@H](O)CN2C(=O)[C@@H](c2cc(N3CCC(C#CCN4CCC(Oc5cc(N6C7CCC6CN(c6cc(-c8ccccc8O)nnc6N)C7)ccn5)CC4)CC3)no2)C(C)C)cc1", "< 2.5 nM"],
  ["CC(C)[C@H](C(=O)N1C[C@H](O)C[C@H]1C(=O)N[C@@H](C)c1ccc(-c2scnc2N)cc1)c1cc(N2CCC(CN3CCC(O[C@H]4C[C@H](Oc5cc(N6C7CCC6CN(c6cc(-c8ccccc8O)nnc6N)C7)ccn5)C4)CC3)CC2)no1", "2.5 to 10 nM"],
  ["Cc1ncsc1-c1ccc([C@H](CO)NC(=O)[C@@H]2C[C@@H](O)CN2C(=O)[C@H](c2cc(OCCN3CCC(O[C@H]4C[C@H](Oc5cc(N6C7CCC6CN(c6cc(-c8ccccc8O)nnc6N)C7)ccn5)C4)CC3)no2)C(C)C)cc1", "2.5 to 10 nM"],
  ["Cc1ncsc1-c1ccc([C@H](C)NC(=O)[C@@H]2C[C@@H](O)CN2C(=O)[C@@H](NC(=O)COC2CN(CCN3CCN(CCCc4cc(N5C6CCC5CN(c5cc(-c7ccccc7O)nnc5N)C6)ccn4)CC3)C2)C(C)(C)C)cc1", "> 30 nM"],
  ["Cc1ncsc1-c1ccc([C@@H](NC(=O)[C@@H]2C[C@@H](O)CN2C(=O)[C@@H](c2cc(OCCN3CCN(CCOc4cc(N5C6CCC5CN(c5cc(-c7ccccc7O)nnc5N)C6)ccn4)CC3)no2)C(C)C)C(=O)N(C)C)cc1", "< 2.5 nM"]
]}

Q: For `Cc1ncsc1-c1ccc(CNC(=O)[C@@H]2C[C@@H](O)CN2C(=O)[C@@H](NC(=O)COCCOCCOCCn2cc(-c3cc(-c4ccccc4O)nnc3N)cn2)C(C)(C)C)cc1` , what is its reported DC50?
A: > 30 nM

Q: State the recorded DC50 for this entry: `Cc1ncoc1-c1ccc([C@H](C)NC(=O)[C@@H]2C[C@@H](O)CN2C(=O)[C@H](c2cc(OCCN3CCC(O[C@H]4C[C@H](Oc5cc(N6C7CCC6CN(c6cc(-c8ccccc8O)nnc6N)C7)ccn5)C4)CC3)no2)C(C)C)cn1`
A: > 30 nM

Q: Returns the measured DC50 for the input compound. Input: `Cc1ncoc1-c1ccc([C@H](C)NC(=O)[C@@H]2C[C@@H](O)CN2C(=O)[C@@H](c2cc(OCCN3CCN(CCOc4cc(N5C6CCC5CN(c5cc(-c7ccccc7O)nnc5N)C6)ccn4)CC3)no2)C(C)C)cn1`
A: 2.5 to 10 nM

Q: Which value of DC50 has been reported for `Cc1ncsc1-c1ccc(CNC(=O)[C@@H]2C[C@@H](O)CN2C(=O)[C@@H](c2cc(OCCN3CCC(O[C@H]4C[C@H](Oc5cc(N6C7CCC6CN(c6cc(-c8ccccc8O)nnc6N)C7)ccn5)C4)CC3)no2)C(C)C)c(C#N)c1` in the records?
A: < 2.5 nM

###

biological target: BRM (Homo sapiens, UniProt P51531); construct: In-Cell Western Screen of BRM Degradation in SW1573 Cells; endogenous in cells; host or cells: SW1573; experiment: In-cell Western screen of BRM degradation in SW1573 cells (Dmax and DC50); assay type: cell-based; conditions: BRM degradation, SW1573 cells; read-out: DC50
MEASURED_METRIC: DC50

{"columns": ["COMPOUND", "ENDPOINT_RESULT"],
 "data": [
  ["Cc1ncsc1-c1ccc([C@@H](CN)NC(=O)[C@@H]2C[C@@H](O)CN2C(=O)[C@H](c2cc(OCCN3CCN(CCOc4cc(N5C6CCC5CN(c5cc(-c7ccccc7O)nnc5N)C6)ccn4)CC3)no2)C(C)C)cc1", "> 30 nM"],
  ["Cc1nccn1-c1ccc([C@H](C)NC(=O)[C@@H]2C[C@@H](O)CN2C(=O)[C@@H](c2cc(OCCN3CCN(CCOc4cc(N5C6CCC5CN(c5cc(-c7ccccc7O)nnc5N)C6)ccn4)CC3)no2)C(C)C)cc1", "< 2.5 nM"],
  ["CC(C)[C@@H](C(=O)N1C[C@H](O)C[C@H]1C(=O)N[C@@H](C)c1ccc(C#N)cc1)c1cc(N2CCC(CN3CCC(O[C@H]4C[C@H](C#C[C@@H](C)n5cc(-c6cc(-c7ccccc7O)nnc6N)cn5)C4)CC3)CC2)no1 (single isomer, unassigned)", "< 2.5 nM"]
]}

Shifting focus to the compound that follows.
Q: Which DC50 reading was recorded for the compound `Cc1ncsc1-c1ccc(CNC(=O)[C@@H]2C[C@@H](O)CN2C(=O)[C@H](c2cc(OCCOCCOCCOc3cc(N4C5CCC4CN(c4cc(-c6ccccc6O)nnc4N)C5)ccn3)no2)C(C)C)cc1` ?
A: > 30 nM
